test-system: T1, human GITR (amino acids M1-V241, NCBI Accession #NP_004186.1) expressed on cells (human, UniProt Q9Y5U5 26-241)
T1 sequence: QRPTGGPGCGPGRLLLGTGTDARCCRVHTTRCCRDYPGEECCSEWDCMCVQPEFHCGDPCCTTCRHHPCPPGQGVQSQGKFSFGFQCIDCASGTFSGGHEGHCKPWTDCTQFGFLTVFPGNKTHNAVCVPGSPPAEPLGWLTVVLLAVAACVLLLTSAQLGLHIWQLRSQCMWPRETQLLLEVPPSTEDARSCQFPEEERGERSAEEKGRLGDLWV
test-name: cell-based or functional assay
reported-property: EC50, hGITR activation, NF-kB-Luc, non-anchored
Answer by giving the amount and then stating its unit.

Known EC50, hGITR activation, NF-kB-Luc, non-anchored results, listed for orientation:
{"columns": ["binder", "experimental-result"],
 "data": [
  ["H1H14493P (antibody, human IgG1, V domains shown, human IgG1 (H1H)) VH: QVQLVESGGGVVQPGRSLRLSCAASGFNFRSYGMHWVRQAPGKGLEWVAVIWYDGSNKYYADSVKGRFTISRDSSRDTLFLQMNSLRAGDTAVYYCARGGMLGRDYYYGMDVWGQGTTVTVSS VL: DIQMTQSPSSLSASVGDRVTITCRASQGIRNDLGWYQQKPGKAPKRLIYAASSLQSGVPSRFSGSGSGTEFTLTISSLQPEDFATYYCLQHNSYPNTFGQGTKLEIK", "1.2 nM"],
  ["H4H14476P (antibody, human IgG4, V domains shown, human IgG4 (H4H)) VH: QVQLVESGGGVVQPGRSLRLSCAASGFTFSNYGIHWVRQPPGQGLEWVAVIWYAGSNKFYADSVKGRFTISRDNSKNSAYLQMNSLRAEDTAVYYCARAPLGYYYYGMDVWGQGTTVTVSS VL: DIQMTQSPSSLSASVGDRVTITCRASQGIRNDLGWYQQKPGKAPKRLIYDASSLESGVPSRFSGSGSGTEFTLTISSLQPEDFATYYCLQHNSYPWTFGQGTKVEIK", "1 nM"],
  ["H1H14503P (antibody, human IgG1, V domains shown, human IgG1 (H1H)) VH: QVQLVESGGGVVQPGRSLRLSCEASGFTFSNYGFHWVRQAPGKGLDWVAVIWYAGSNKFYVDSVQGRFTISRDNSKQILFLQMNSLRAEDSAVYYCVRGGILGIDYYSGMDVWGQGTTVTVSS VL: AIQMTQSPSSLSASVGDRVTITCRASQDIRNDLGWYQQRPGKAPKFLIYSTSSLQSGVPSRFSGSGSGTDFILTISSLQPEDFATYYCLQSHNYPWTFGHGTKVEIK", "1.4 nM"],
  ["H1H14486P (antibody, human IgG1, V domains shown, human IgG1 (H1H)) VH: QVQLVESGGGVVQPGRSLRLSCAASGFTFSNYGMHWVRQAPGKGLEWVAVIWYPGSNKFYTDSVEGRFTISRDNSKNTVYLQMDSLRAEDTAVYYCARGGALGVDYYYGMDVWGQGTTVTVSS VL: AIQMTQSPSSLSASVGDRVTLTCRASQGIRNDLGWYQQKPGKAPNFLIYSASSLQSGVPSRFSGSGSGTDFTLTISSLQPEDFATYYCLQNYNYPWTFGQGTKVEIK", "1.2 nM"]
]}

// next entry
Any idea what its EC50, hGITR activation, NF-kB-Luc, non-anchored is? The binder is H4H14528P (antibody, human IgG4, V domains shown, human IgG4 (H4H)) VH: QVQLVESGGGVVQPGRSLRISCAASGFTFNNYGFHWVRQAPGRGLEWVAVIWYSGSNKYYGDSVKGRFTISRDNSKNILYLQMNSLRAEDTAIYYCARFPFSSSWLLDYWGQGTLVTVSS VL: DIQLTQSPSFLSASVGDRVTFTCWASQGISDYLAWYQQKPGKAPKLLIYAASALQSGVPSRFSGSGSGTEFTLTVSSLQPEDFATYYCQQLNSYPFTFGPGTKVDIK 1.1 nM
